Kindly state inhibition for each of the entries shown.
- Experimental Target: Serine/threonine-protein kinase PAK 6 (Homo sapiens) (UniProt Q9NQU5);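 note: values are mean percent inhibition of PAK6 kinase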
- Sequence (Q9NQU5 whole entry, looked up): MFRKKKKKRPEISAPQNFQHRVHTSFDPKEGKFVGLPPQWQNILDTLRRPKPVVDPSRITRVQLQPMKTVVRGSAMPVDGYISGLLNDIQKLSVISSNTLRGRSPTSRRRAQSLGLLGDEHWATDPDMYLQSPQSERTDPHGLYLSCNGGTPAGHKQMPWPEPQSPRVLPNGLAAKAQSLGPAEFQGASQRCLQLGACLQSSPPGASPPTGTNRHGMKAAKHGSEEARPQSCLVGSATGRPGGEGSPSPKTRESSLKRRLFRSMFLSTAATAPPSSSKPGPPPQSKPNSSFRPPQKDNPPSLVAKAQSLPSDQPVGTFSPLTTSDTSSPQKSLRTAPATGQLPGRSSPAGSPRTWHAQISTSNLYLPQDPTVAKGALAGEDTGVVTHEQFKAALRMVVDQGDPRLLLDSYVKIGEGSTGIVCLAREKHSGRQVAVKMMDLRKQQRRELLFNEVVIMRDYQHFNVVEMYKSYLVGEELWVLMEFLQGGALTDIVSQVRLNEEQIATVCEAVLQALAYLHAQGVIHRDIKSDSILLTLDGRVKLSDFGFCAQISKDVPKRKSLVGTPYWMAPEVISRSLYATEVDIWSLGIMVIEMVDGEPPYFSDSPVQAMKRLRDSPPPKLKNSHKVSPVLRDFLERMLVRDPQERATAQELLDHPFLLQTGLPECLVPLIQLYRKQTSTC
- Reported Conditions: at 1 µM
Give bare numbers, in %.

Known results for compounds:
Cc1cc(Cl)cc2c1NC(=O)C2=NNc1ccc(S(N)(=O)=O)cc1 | -1.69
N#Cc1cccc(Nc2nccc(-c3cnn4ncccc34)n2)c1 | -4.67

Could I get inhibition for every one of these entries?
1. ON=C1CCc2cc(-c3nc(C4CCNCC4)[nH]c3-c3ccncc3)ccc21
2. O=S(=O)(CCOCc1ccc(-c2ccc3ncnc(Nc4ccc(OCc5cccc(F)c5)c(Cl)c4)c3c2)o1)c1ccccc1
3. CN1CCN(C(=O)c2ccc(NC(=O)Nc3ccc(N(C)c4ccnc(Nc5ccc(CS(C)(=O)=O)cc5)n4)cc3)cc2)CC1

1: 0; 2: -7.47; 3: -8.2

For the 2 compounds below, give their inhibition values.
1. Cc1ccc2c(-c3ccnc(Nc4cccc(C(F)(F)F)c4)n3)c(-c3ccccc3)nn2n1
2. COC(=O)c1cncc(/C=C/c2c(C)cc(O)cc2C)c1

1. -8.69
2. 7.57

###

- System: Tyrosine-protein kinase ABL1 (Homo sapiens), P00519 [M351T]
- Reported Conditions: at 0.1 µM
Field: inhibition. Provide a value for each of the compounds that follow.
Give bare numbers, in %.

Please review the entries below; each comes with its answer.
CCOc1nccc2c1nc(-c1nonc1N)n2CC | 1.78
Cc1ccc(Nc2ccnc(Nc3cccc(C(N)=O)c3)n2)cc1O | 74.4
COc1cc2ncn(-c3cc(OCc4ccccc4S(C)(=O)=O)c(C#N)s3)c2cc1OC | 9.97
Cc1ccc2c(c1)/C(=N/Nc1ccc(S(N)(=O)=O)cc1)C(=O)N2 | 0.64
Nc1nccc(C#Cc2cncnc2Nc2ccc(OCc3cccc(F)c3)c(Cl)c2)n1 | 1.11

// next item, inhibition requested
Name the recorded inhibition of the item "COc1cc2ncnc(Nc3ccc(C)c(O)c3)c2cc1OC" in your answer.
42.5

###

- Experimental Target: NUAK family SNF1-like kinase 1 (Homo sapiens)
- Reported Conditions: at 1 µM
- Description: GSK_PKIS: ARK5 mean inhibition at 1 uM [Nanosyn]
Measurement Label: inhibition (%)
One number for each entry, in %.

Worked cases, answers included:
NS(=O)(=O)c1cccc(-c2cc3ccncc3cc2OCc2ccccc2)c1 | 11.3
Cc1ccc(NC(=O)CC2CC2)cc1-c1ccc(C(=O)NCC2CC2)cc1 | 3.71
COc1ccc(-c2nn3ncccc3c2-c2ccnc(Nc3cccc(C(F)(F)F)c3)n2)cc1 | -0.63
CCS(=O)(=O)c1ccc(OC)c(Nc2nccc(N(C)c3ccc4c(C)n[nH]c4c3)n2)c1 | -2.26
COc1cccc(-n2nc(C)c3c(N/N=C(\C)c4ccncc4)ncnc32)c1 | 2.97

Hi there! I need inhibition for each item below, if you can.
1. CCOc1nccc2c1nc(-c1nonc1N)n2CC
2. C[C@@H](Oc1cc(-n2cnc3ccc(OCC4CCN(C)CC4)cc32)sc1C(N)=O)c1ccccc1C(F)(F)F
3. Cc1ccc(O)cc1Nc1ccnc2ccc(S(C)(=O)=O)cc12

[12.8, 76.6, 4.91]

State recorded inhibition for all listed molecules.
1. CCS(=O)(=O)c1ccc(OC)c(Nc2ncc(-c3cccc(OC)c3)o2)c1
2. Nc1nccc(-c2c(-c3ccc(F)cc3)ncn2CCCN2CCOCC2)n1

13.4
-1.7

###

What inhibition was measured for each of the following?
- Experimental Target: NUAK family SNF1-like kinase 1 (Homo sapiens)
- Sequence (whole entry): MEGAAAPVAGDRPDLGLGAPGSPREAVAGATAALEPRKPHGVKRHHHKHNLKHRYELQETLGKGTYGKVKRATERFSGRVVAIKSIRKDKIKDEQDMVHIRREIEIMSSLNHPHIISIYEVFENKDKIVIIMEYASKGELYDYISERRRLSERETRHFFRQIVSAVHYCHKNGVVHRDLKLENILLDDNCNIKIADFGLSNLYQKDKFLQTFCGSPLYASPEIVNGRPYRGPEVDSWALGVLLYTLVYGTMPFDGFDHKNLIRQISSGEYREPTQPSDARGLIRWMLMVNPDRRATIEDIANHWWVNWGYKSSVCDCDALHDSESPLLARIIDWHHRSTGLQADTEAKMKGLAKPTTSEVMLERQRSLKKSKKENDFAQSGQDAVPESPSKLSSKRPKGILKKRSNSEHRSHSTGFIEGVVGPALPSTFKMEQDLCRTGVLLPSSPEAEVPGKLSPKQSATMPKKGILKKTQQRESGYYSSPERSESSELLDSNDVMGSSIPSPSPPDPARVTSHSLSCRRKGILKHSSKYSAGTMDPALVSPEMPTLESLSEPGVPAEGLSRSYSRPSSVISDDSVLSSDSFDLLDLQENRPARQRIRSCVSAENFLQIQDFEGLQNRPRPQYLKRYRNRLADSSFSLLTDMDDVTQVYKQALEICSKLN
- Reported Conditions: at 1 µM
Answers are plain numbers, in %.

Some molecules with known inhibition results, for comparison:
CN(C)CCCn1c(-c2nonc2N)nc2cnccc21 | -0.59
Cc1ccc(C(=O)NC2CC2)cc1-c1ccc2[nH]ncc2c1 | 6.93
NS(=O)(=O)c1cccc(Nc2cc(-c3ccc(F)cc3)n[nH]2)c1 | 12.6
C[C@@H](Oc1cc(-n2cnc3ccc(OC[C@@H](O)CO)cc32)sc1C(N)=O)c1ccccc1Cl | 39.1
COC(=O)c1ccc2c(c1)C(=Cc1cc(Br)c(O)c(Br)c1)C(=O)N2 | 2.73
Cc1ccc(Nc2ccnc(Nc3cccc(C(N)=O)c3)n2)cc1O | 41.1
CCn1c(-c2nonc2N)nc2ccc(F)cc21 | 2.03
c1ccc(Nc2ncc(-c3ccccc3)o2)cc1 | 11

Read the next record carefully.
Give recorded inhibition. "NS(=O)(=O)c1ccc(NC=C2C(=O)Nc3ccc4ncsc4c32)cc1"
69.8

###

- Experimental Target: Protein kinase C beta type (Homo sapiens);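 note: measured against the PKC-beta2 splice variant, with values reported as mean percent inhibition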
- Reported Conditions: at 0.1 µM
- Description: GSK_PKIS: PKC-beta2 (splice variant) mean inhibition at 0.1 uM [Nanosyn]
Could you please report measured inhibition for the items listed next?
Give bare numbers, in %.

Worked cases, inhibition given:
COc1ccc2ncnc(Nc3ccc(OCc4ccccc4)cc3)c2c1 | 0.9
COC(=O)c1cncc(/C=C/c2c(C)cc(O)cc2C)c1 | -1.36
Cc1ccc(O)cc1Nc1ccnc2ccc(S(C)(=O)=O)cc12 | 2.21
NS(=O)(=O)c1ccc(Nc2cc(-c3cccc(O)c3)n[nH]2)cc1 | 1.35
Cc1cc(-c2ccccn2)cc(C)c1/C=C/c1cncc(-c2nn[nH]n2)c1 | 1.2
COC(=O)Nc1nc2cc(Oc3ccc(NC(=O)Nc4cccc(Br)c4)cc3)ccc2[nH]1 | 0.71

// batch mode: one inhibition value per listed entry
1. Cc1ccc(NC(=O)CC2CC2)cc1-c1ccc(C(=O)NCC2CC2)cc1
2. COc1cc(Nc2nccc(-c3cnn4ncccc34)n2)cc(OC)c1
3. CN(c1ccc(NC(=O)Nc2ccc(OC(F)(F)F)cc2)cc1)c1ccnc(Nc2cccc(S(N)(=O)=O)c2)n1
4. Nc1nccc(-c2c(-c3ccc(F)cc3)nn3cc(C(F)(F)F)ccc23)n1

1
1.8
-0.08
-0.91

Tell me inhibition reported for "C[C@@H](Oc1cc(-n2cnc3ccc(OCC4CCN(C)CC4)cc32)sc1C(N)=O)c1ccccc1C(F)(F)F"
2.07

###

- Experimental Target: Phosphatidylinositol 4,5-bisphosphate 3-kinase catalytic subunit alpha isoform (Homo sapiens);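 note: values are mean percent inhibition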
- Reported Conditions: at 1 µM
Please respond with reported inhibition for every item in the list.
Note: state the figure and append the unit.

Use the examples below as a reference point.
CCCN1CCCC(c2ccc(Nc3nc(Nc4cc(F)ccc4C(N)=O)c4cc[nH]c4n3)c(OC)c2)C1 (stereo not given) | 5.55%
N#Cc1c(NC(=O)c2ccccc2F)sc2c1CCCC2 | -1.29%

Could you tell me inhibition for each of these compounds? They are listed below.
1. Cc1cc(O)cc(C)c1/C=C/c1cncc(C(=O)N(C)C)c1
2. O=S(=O)(CCOCc1ccc(-c2ccc3ncnc(Nc4ccc(OCc5cccc(F)c5)c(Cl)c4)c3c2)o1)c1ccccc1
3. CCS(=O)(=O)c1ccc(OC)c(Nc2nccc(N(C)c3ccc4c(C)n[nH]c4c3)n2)c1
4. c1ccc(Cc2nc3ccc(Nc4ncnc5ccccc45)cc3[nH]2)cc1

1: 0.49%; 2: 12.9%; 3: 3.7%; 4: 4.64%

Dear colleague, could you please provide inhibition for the compounds listed below?
1. ON=C1CCc2cc(-c3nc(C4CCNCC4)[nH]c3-c3ccncc3)ccc21
2. COc1ccc(-c2nn3ncccc3c2-c2ccnc(Nc3cccc(C(F)(F)F)c3)n2)cc1
3. COc1cc(Nc2nccc(-c3cnn4ncccc34)n2)cc(OC)c1
4. O=C1Nc2ccc(-c3cccnc3)cc2C1=Cc1cc(Br)c(O)c(Br)c1

0%
2.8%
20.5%
55.5%

State the recorded inhibition for every item in the following list.
1. Cc1ccc2c(-c3ccnc(Nc4ccc5c(c4)OCCO5)n3)c(-c3ccc(C(F)(F)F)cc3)nn2n1
2. O=C(Nc1ccc(Oc2ccc3[nH]c(NC(=O)c4ccco4)nc3c2)cc1)Nc1cc(C(F)(F)F)ccc1F
3. c1ccc(Nc2ncc(-c3ccccc3)o2)cc1

["-0.65%", "0.01%", "6.84%"]

Kindly give each listed record's inhibition.
1. COc1cccc(-n2nc(C)c3c(N/N=C(\C)c4ccncc4)ncnc32)c1
2. Cc1ccc(Nc2ccnc(Nc3cccc(C(N)=O)c3)n2)cc1O
3. Oc1cccc(-c2nc(-c3ccccc3)[nH]c2-c2ccncc2)c1
4. CCOc1nccc2c1nc(-c1nonc1N)n2CC
5. COc1cc(/C=N/Nc2ncnc3c2cnn3C(C)C)ccc1O
6. Nc1nccc(C#Cc2cncnc2Nc2ccc(OCc3cccc(F)c3)c(Cl)c2)n1
7. COc1cccc(-n2ncc3c(N/N=C/c4ccc(S(C)(=O)=O)cc4)ncnc32)c1

1. -0.14%
2. 3.39%
3. 2.95%
4. 1.35%
5. 70.5%
6. 4.72%
7. 1.54%
